Values from patent US20200377505A1

SYSTEM NAME: human TRPC5 (Homo sapiens, UniProt Q9UL62)
Construct: expressed in transfected cells; host or cells: HEK 293
Sequence (Q9UL62 whole entry): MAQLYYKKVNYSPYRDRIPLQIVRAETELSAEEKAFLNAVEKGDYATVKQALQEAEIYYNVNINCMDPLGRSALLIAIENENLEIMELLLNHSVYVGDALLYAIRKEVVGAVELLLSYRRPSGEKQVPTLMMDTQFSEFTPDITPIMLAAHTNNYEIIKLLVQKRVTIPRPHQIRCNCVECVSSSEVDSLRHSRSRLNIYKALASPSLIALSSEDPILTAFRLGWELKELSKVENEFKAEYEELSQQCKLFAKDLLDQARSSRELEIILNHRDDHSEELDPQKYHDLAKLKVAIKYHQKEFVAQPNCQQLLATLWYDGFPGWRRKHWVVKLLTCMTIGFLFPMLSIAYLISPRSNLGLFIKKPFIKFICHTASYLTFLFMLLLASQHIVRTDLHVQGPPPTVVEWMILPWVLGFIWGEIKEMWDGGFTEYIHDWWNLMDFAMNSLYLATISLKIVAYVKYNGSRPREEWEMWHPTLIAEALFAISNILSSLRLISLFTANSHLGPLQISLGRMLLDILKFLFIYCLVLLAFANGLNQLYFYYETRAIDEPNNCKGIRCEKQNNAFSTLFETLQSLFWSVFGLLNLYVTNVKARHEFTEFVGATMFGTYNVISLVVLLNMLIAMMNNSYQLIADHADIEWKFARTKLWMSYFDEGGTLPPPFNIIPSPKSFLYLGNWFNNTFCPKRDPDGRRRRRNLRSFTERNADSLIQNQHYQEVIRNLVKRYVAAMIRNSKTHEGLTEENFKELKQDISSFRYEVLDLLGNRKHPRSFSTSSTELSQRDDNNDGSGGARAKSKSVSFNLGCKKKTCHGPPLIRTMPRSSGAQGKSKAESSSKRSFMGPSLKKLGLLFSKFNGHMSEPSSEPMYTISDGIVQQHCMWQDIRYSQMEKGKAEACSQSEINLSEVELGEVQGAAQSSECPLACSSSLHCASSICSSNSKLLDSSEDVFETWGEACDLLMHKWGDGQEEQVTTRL
PROTOCOL DETAILS: TRPC5 fluorescence-based assay (Ca2+ flux assay in FLIPR format), cells overexpressing TRPC5
Format: cell-based
EXPERIMENTAL CONDITIONS: 5 μM of test compound, following Carbachol stimulation
RECORDED ENDPOINT: inhibition at 5 µM (%)
Give just the number in %; leave the unit off.

SMILES STRUCTURE	SYSTEM NAME	inhibition at 5 µM, %
Cc1ccc(NC(=O)Cn2c(C)nc3ccccc32)cc1	human TRPC5 (Homo sapiens, UniProt Q9UL62)	32.1
CCN(CC)c1ccc(CNc2nc3ccccc3n2CCN2CCCCC2)cc1	human TRPC5 (Homo sapiens, UniProt Q9UL62)	61.2
COc1ccc(NCc2nc3ccccc3n2CCOc2ccccc2C)cc1	human TRPC5 (Homo sapiens, UniProt Q9UL62)	44.9
CC(C)CCn1c(-c2ccc(N)cc2)nc2ccccc21	human TRPC5 (Homo sapiens, UniProt Q9UL62)	61.1
CCN(CC)CCn1c(NCc2cccc(Br)c2)nc2ccccc21	human TRPC5 (Homo sapiens, UniProt Q9UL62)	62.9
CCn1c(NCc2ccccc2O)nc2ccccc21	human TRPC5 (Homo sapiens, UniProt Q9UL62)	50

// below: inhibition at 5 µM requested for another compound
Memo: "CCCn1c(NCc2c[nH]c3ccccc23)nc2ccccc21" , reported inhibition at 5 µM: 70.6

* * *

SYSTEM NAME: human TRPC6 (Homo sapiens, UniProt Q9Y210)
Construct: expressed in transfected cells; host or cells: HEK 293
Sequence (Q9Y210 whole entry): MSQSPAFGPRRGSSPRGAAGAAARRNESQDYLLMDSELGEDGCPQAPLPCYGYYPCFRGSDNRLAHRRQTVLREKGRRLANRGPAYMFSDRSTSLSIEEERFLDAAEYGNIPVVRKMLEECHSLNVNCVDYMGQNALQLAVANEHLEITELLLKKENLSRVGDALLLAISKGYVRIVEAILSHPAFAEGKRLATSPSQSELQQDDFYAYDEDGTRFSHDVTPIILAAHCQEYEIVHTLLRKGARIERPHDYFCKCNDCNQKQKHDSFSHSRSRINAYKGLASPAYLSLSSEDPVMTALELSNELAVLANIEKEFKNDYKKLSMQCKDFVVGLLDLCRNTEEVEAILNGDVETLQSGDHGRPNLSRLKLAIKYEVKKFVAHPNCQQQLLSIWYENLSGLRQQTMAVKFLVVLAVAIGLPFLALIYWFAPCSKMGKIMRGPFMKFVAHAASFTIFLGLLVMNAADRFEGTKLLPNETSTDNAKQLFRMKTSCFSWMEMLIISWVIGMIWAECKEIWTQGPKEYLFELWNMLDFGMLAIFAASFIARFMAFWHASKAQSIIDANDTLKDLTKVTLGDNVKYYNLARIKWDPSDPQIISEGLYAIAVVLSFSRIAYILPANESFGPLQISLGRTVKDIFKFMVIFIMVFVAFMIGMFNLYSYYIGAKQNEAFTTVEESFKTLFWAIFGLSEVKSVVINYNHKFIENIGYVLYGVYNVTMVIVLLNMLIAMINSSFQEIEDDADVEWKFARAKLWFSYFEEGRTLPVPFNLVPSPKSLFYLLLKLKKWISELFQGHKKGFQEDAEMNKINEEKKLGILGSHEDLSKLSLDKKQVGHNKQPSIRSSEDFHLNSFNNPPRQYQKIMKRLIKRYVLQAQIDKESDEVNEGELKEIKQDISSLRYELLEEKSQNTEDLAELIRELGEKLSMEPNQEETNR
PROTOCOL DETAILS: TRPC6 fluorescence-based assay (Ca2+ flux assay in FLIPR format), cells overexpressing TRPC6
Format: cell-based
EXPERIMENTAL CONDITIONS: 5 μM of test compound, following Carbachol stimulation
RECORDED ENDPOINT: inhibition at 5 µM (%)
Give just the number in %; leave the unit off.

Before answering, review these 4 worked examples.
MOLECULE	SYSTEM NAME	READOUT VALUE
COc1ccccc1NC(=O)Cn1c(C)nc2ccccc21	human TRPC6 (Homo sapiens, UniProt Q9Y210)	84.1
CCCCCn1c(NCc2ccc(N(C)C)cc2)nc2ccccc21	human TRPC6 (Homo sapiens, UniProt Q9Y210)	81.9
Clc1ccc(Cn2c(NCc3cccs3)nc3ccccc32)cc1	human TRPC6 (Homo sapiens, UniProt Q9Y210)	37.5
Cc1cccc(OCCn2c(Cc3ccccc3)nc3ccccc32)c1	human TRPC6 (Homo sapiens, UniProt Q9Y210)	52.9

Result for "CCCn1c(NCc2ccccc2Cl)nc2ccccc21" , tested on human TRPC6 (Homo sapiens, UniProt Q9Y210), inhibition at 5 µM: 29.8

Result for CCCCc1nc2ccccc2n1CC(=O)N1CCCC1c1nc2ccccc2s1 (stereo not shown) , tested on human TRPC6 (Homo sapiens, UniProt Q9Y210), inhibition at 5 µM: -0.71

Result for "CCCCCCn1c(NCc2ccccc2O)nc2ccccc21" , tested on human TRPC6 (Homo sapiens, UniProt Q9Y210), inhibition at 5 µM: 21.9

Result for "CCn1c(NCc2cc(C)ccc2O)nc2ccccc21" , tested on human TRPC6 (Homo sapiens, UniProt Q9Y210), inhibition at 5 µM: 3.16

Result for Cn1c(CC(O)c2ccccc2)nc2ccccc21 (stereo not shown) , tested on human TRPC6 (Homo sapiens, UniProt Q9Y210), inhibition at 5 µM: -9.99
